test: Selectivity ratio of IC50 for equine serum BuChE to IC50 for electric eel AChE

{"columns": ["compound", "Ratio IC50"],
 "data": [
  ["O=C(N/N=C/c1ccc(Cl)cc1)c1ccc(CN2CCCC(O)C2)cc1 (configuration not stated)", 1.9],
  ["O=C(N/N=C/c1ccc(-n2ccnc2)cc1)c1ccc(CN2CCCC(O)C2)cc1 (configuration not stated)", 1.8],
  ["O=C(N/N=C/c1ccc([N+](=O)[O-])cc1)c1ccc(CN2CCCC(O)C2)cc1 (configuration not stated)", 12.5],
  ["O=C(N/N=C/c1ccc(N2CCCCC2)cc1)c1ccc(CN2CCCC(O)C2)cc1 (configuration not stated)", 5.3],
  ["COc1ccc(/C=N/NC(=O)c2ccc(CN3CCCC(O)C3)cc2)cc1 (configuration not stated)", 7],
  ["CSc1ccc(/C=N/NC(=O)c2ccc(CN3CCCC(O)C3)cc2)cc1 (configuration not stated)", 5.7],
  ["O=C(N/N=C/c1ccc(F)cc1)c1ccc(CN2CCCC(O)C2)cc1 (configuration not stated)", 4.5]
]}

###

target: Acetylcholinesterase (Electrophorus electricus, UniProt O42275)
Sequence (O42275 whole entry): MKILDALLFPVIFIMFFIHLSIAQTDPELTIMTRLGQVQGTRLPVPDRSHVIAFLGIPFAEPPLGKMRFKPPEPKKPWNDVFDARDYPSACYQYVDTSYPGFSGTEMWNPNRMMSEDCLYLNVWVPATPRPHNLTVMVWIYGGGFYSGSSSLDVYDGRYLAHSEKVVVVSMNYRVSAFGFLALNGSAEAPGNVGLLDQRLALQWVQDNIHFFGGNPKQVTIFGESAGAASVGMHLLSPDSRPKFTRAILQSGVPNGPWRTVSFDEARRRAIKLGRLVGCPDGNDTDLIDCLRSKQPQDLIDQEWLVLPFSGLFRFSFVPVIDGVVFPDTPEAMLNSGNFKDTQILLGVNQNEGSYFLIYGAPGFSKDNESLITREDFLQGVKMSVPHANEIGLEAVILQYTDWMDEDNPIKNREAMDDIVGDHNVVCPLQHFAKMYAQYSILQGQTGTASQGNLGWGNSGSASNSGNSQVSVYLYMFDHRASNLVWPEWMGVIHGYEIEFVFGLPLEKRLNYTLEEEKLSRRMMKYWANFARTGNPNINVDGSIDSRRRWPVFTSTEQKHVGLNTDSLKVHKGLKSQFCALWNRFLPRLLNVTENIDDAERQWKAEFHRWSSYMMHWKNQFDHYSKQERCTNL

{"columns": ["compound", "unitAnnotation", "inequalitySign", "IC50"],
 "data": [
  ["O=C(N/N=C/c1ccc(N2CCOCC2)cc1)c1ccc(CN2CCCC(O)C2)cc1 (stereo not given)", "µM", "≥", 100],
  ["O=C(N/N=C/c1ccc(Br)cc1)c1ccc(CN2CCCC(O)C2)cc1 (stereo not given)", "µM", "=", 11.9],
  ["CC(=O)Oc1ccc(/C=N/NC(=O)c2ccc(CN3CCCC(OC(C)=O)C3)cc2)cc1 (stereo not given)", "µM", "≥", 100],
  ["O=C(N/N=C/c1ccc([N+](=O)[O-])cc1)c1ccc(CN2CCCC(O)C2)cc1 (stereo not given)", "µM", "=", 2.71],
  ["COc1ccc(/C=N/NC(=O)c2ccc(CN3CCCC(O)C3)cc2)cc1 (stereo not given)", "µM", "=", 13.2],
  ["O=C(N/N=C/c1ccc(N2CCCCC2)cc1)c1ccc(CN2CCCC(O)C2)cc1 (stereo not given)", "µM", "=", 10.9],
  ["CC(=O)OC1CCCN(Cc2ccc(C(=O)N/N=C/c3ccc(Br)cc3)cc2)C1 (stereo not given)", "µM", "≥", 100],
  ["O=C(N/N=C/c1ccccc1)c1ccc(CN2CCCC(O)C2)cc1 (stereo not given)", "µM", "=", 30],
  ["O=C(N/N=C/c1ccc(-n2ccnc2)cc1)c1ccc(CN2CCCC(O)C2)cc1 (stereo not given)", "µM", "=", 21.7],
  ["O=C(N/N=C/c1ccc(F)cc1)c1ccc(CN2CCCC(O)C2)cc1 (stereo not given)", "µM", "=", 8.65],
  ["CC(=O)OC1CCCN(Cc2ccc(C(=O)N/N=C/c3ccc(N)cc3)cc2)C1 (stereo not given)", "µM", "≥", 100],
  ["O=C(N/N=C/c1ccc(Cl)cc1)c1ccc(CN2CCCC(O)C2)cc1 (stereo not given)", "µM", "=", 25.4],
  ["O=C(N/N=C/c1ccc(N2CCCC2)cc1)c1ccc(CN2CCCC(O)C2)cc1 (stereo not given)", "µM", "=", 14.7],
  ["CSc1ccc(/C=N/NC(=O)c2ccc(CN3CCCC(O)C3)cc2)cc1 (stereo not given)", "µM", "=", 10.4],
  ["Nc1ccc(/C=N/NC(=O)c2ccc(CN3CCCC(O)C3)cc2)cc1 (stereo not given)", "µM", "=", 21.5]
]}
